B1: TMEM106C (parent)
chain: TVPEILVHNIVIFMRTSVKISYIG

Variants of: B1
assay-details: protein stability index of a GFP-peptide fusion (GPS, HEK-293T) (PSI 1-6); higher = more stable;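 also: lentivirally expressed fusions sorted by FACS into six bins by GFP to DsRed ratio, PSI derived from sequencing read proportions per bin multiplied by bin number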
test-parameters: c terminus: a fixed tail appended
Quick reference: protein stability index of the listed items.
Give the figure by itself; no unit, no explanation.

variant-id: G24K
protein stability index: 2.98

variant-id: I5L
protein stability index: 2.94

variant-id: G24V
protein stability index: 2.95

variant-id: I10Q
protein stability index: 2.94

For the next question, use this variant.
Input: Identify protein stability index associated with the variant `V7H`
Output: 3.09
